Experimental System: rat OAT3 (rk1411) (Rattus norvegicus)
Construct: cRNA (RNA complementary to cDNA) was prepared in vitro from the plasmid carrying the clone (rk1411); expressed in transfected cells; host or cells: Xenopus oocytes injected with rk1411 cRNA
Procedure Text: Michaelis-Menten dynamic test of organic anion transport with rk1411 in oocyte
Assay type: cell-based
Condition Info: transport by rk1411 (rat OAT3) in Xenopus oocyte; FIG. 2; listed as Ochratoxin A; read-out: Km
Quantity: Km (µM)
Numbers only, in µM.

For C[C@@H]1Cc2c(Cl)cc(C(=O)N[C@@H](Cc3ccccc3)C(=O)O)c(O)c2C(=O)O1 [ochratoxin A] , what is its reported Km?
0.739

---

Experimental System: rat OAT3 (rk1411) (Rattus norvegicus, UniProt Q9R1U7)
Construct: cRNA (RNA complementary to cDNA) was prepared in vitro from the plasmid carrying the clone (rk1411); expressed in transfected cells; host or cells: Xenopus oocytes injected with rk1411 cRNA
Procedure Text: Michaelis-Menten dynamic test of organic anion transport with rk1411 in oocyte
Format: cell-based
Quantity: Km (µM)
Give bare numbers, in µM.

Data request, read-out Km, for Nc1ccc(C(=O)NCC(=O)O)cc1 [PAH, p-aminohippuric acid]
64.7

---

Experimental System: rat OAT3 (rk1411) (Rattus norvegicus, UniProt Q9R1U7)
Construct: cRNA (RNA complementary to cDNA) was prepared in vitro from the plasmid carrying the clone (rk1411); expressed in transfected cells; host or cells: Xenopus oocytes injected with rk1411 cRNA
Sequence (Q9R1U7 1-536): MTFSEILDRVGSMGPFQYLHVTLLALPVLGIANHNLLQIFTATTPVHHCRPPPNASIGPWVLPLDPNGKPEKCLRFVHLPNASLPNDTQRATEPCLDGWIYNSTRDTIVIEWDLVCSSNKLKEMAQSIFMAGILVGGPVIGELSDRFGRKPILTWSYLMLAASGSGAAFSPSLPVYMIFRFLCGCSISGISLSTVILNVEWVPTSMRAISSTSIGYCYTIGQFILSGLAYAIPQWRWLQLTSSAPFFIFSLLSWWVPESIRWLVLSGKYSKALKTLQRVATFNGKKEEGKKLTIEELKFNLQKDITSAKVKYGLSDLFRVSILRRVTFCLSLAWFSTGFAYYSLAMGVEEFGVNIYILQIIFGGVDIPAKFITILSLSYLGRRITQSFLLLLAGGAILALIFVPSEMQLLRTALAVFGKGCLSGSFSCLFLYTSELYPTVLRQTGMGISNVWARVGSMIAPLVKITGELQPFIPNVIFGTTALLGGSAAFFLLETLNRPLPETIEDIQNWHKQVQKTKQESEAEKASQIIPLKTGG
Procedure Text: Inhibition of 3H-estrone sulfate uptake in oocyte injected with rk1411 cRNA
Assay type: cell-based
Condition Info: 1 mM unlabeled compound; Xenopus oocyte; FIG. 3
Quantity: inhibition of 3H-estrone sulfate transport with rk1411

CC1(C)S[C@@H]2[C@H](NC(=O)Cc3ccccc3)C(=O)N2[C@H]1C(=O)O ... significantly inhibited
CC1(C)C(/C=C/C=C/C=C/C=C2\N(CCCCS(=O)(=O)O)c3ccc4ccccc4c3C2(C)C)=[N+](CCCCS(=O)(=O)[O-])c2ccc3ccccc3c21 ... significantly inhibited
CCCCNc1cc(C(=O)O)cc(S(N)(=O)=O)c1Oc1ccccc1 [bumetanide] ... significantly inhibited

The origin of these recorded values is patent US8039586B1.
